Readings of normalized growth for the listed molecules
Test: chemical genetic growth profiling, strain panel (AID 1159580);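 further: tested at 20 µM; growth read once vehicle control cultures reached saturation at 30 °C; 1 = growth at the plate median or of vehicle wells; lower values mean less growth of the strain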
Conditions: S. cerevisiae deletion strains, growth OD, locus YPL240C, strain hsp82, active compounds read low
Hit rate of the full screen: of about 5,500 compounds, about 2,000 (36%) were called active. Inconclusive results (about 18%) are left out. Some of the results follow.
Just the number, please, no unit attached.

[
  {
    "molecule": "C=C1CCC2(OC1)OC1CC3C4CC=C5CC(O)CC(O)C5(C)C4CCC3(C)C1C2C (centres undefined)",
    "recordedValue": 0.974
  },
  {
    "molecule": "C[C@@H]1CC[C@@]2(OC1)OC1CC3C4CC=C5C[C@@H](O)CC[C@]5(C)C4CC[C@]3(C)C1[C@@H]2C (some centres undefined)",
    "recordedValue": 0.986
  },
  {
    "molecule": "C[C@@H]1CC[C@@]2(OC1)O[C@H]1CC3C4CC[C@H]5C[C@@H](O)CC[C@]5(C)C4CC[C@]3(C)[C@H]1[C@@H]2C (some centres undefined)",
    "recordedValue": 0.977
  },
  {
    "molecule": "NC(=NCCC[C@H](N)C(=O)O)N[N+](=O)[O-]",
    "recordedValue": 1.01
  },
  {
    "molecule": "N#Cc1nn(-c2c(Cl)cc(C(F)(F)F)cc2Cl)c(N)c1S(=O)C(F)(F)F (centres undefined)",
    "recordedValue": 0.996
  },
  {
    "molecule": "CCCCOc1cc(C(=O)NCCN(CC)CC)c2ccccc2n1",
    "recordedValue": 0.962
  }
]

Next:
Per the record, NS(=O)(=O)c1cc(C2(O)NC(=O)c3ccccc32)ccc1Cl (centres undefined) has normalized growth of 0.99

----------
Experiment: chemical genetic growth profiling, strain panel (AID 1159580);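 further: tested at 20 µM; growth read once vehicle control cultures reached saturation at 30 °C; 1 = growth at the plate median or of vehicle wells; lower values mean less growth of the strain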
Details: S. cerevisiae deletion strains, growth OD, locus YEL061C, strain CIN8 (second series), active compounds read low
Screen size: about 5,500 compounds; about 2,000 (36%) were called active. Another 18% or so got no clear call; they are omitted. This is one part of the list.
Readings of normalized growth for the listed molecules
Just the number, please, no unit attached.

Below, each entry is followed by its recorded normalized growth result.
[
  {
    "molecule": "C[C@@H]1CC[C@@]2(OC1)O[C@H]1CC3C4CC[C@H]5C[C@@H](O)CC[C@]5(C)C4CC[C@]3(C)[C@H]1[C@@H]2C (some centres undefined)",
    "quantity": "normalized growth",
    "recordedValue": 0.992
  },
  {
    "molecule": "CC(=O)Oc1ccc2c(c1OC(C)=O)OCC1(O)Cc3c(cc(OC(C)=O)c(OC(C)=O)c3OC(C)=O)C21 (centres undefined)",
    "quantity": "normalized growth",
    "recordedValue": 1.01
  },
  {
    "molecule": "C=C1CCC2(OC1)OC1CC3C4CC=C5CC(O)CC(O)C5(C)C4CCC3(C)C1C2C (centres undefined)",
    "quantity": "normalized growth",
    "recordedValue": 0.94
  },
  {
    "molecule": "CC1CC[C@]2(NC1)O[C@H]1CC3C4CC[C@H]5C[C@@H](O)CC[C@]5(C)C4CC[C@]3(C)[C@H]1[C@@H]2C (some centres undefined)",
    "quantity": "normalized growth",
    "recordedValue": 0.0698
  },
  {
    "molecule": "O=C1C=C2C(=CCOC2O)O1 (centres undefined)",
    "quantity": "normalized growth",
    "recordedValue": 0.759
  }
]

Per the record, Oc1ccc2c(c1)OCC1(O)Cc3cc(O)c(O)cc3C21 (centres undefined) has normalized growth of 1.04

Per the record, C[C@@H]1CC[C@@]2(NC1)O[C@H]1C[C@H]3C4CC=C5C[C@@H](O)CC[C@]5(C)C4CC[C@]3(C)C1[C@@H]2C (some centres undefined) has normalized growth of 0.0639

Per the record, Oc1cc2c(cc1O)C1c3ccc(O)c(O)c3OCC1(O)C2 (centres undefined) has normalized growth of 1.02

Per the record, C[C@]12CCC3c4ccc(O)cc4CCC3C1CC[C@@H]2O (some centres undefined) has normalized growth of 1.01
